Ref: patent US12577255B2

System: p53
protocol_details: Western blot of HCT116 cells, p53 level
Assay type: cell-based, human
condition_notes: Western blot (FIG. 2, FIG. 3)
assay_readout: p53 level increase

Reported p53 level increase of "COc1cc(C(=O)NCCOCCOCC(=O)N[C@H](C(=O)N2C[C@H](O)C[C@H]2C(=O)NCc2ccc(-c3scnc3C)cc2)C(C)(C)C)ccc1NC(=O)[C@H]1N[C@H](CC(C)(C)C)[C@@](C#N)(c2ccc(Cl)cc2F)[C@@H]1c1cccc(Cl)c1F" : no p53 level increase

Record COc1cc(C(=O)NCCOCCOCCOCCOCC(=O)N[C@H](C(=O)N2C[C@H](O)C[C@H]2C(=O)NCc2ccc(-c3scnc3C)cc2)C(C)(C)C)ccc1NC(=O)[C@H]1N[C@H](CC(C)(C)C)[C@@](C#N)(c2ccc(Cl)cc2F)[C@@H]1c1cccc(Cl)c1F (single isomer, unassigned) , field p53 level increase: no p53 level increase

Briefly, p53 level increase measured for "COc1cc(C(=O)NCCOCCOCCOCC(=O)N[C@H](C(=O)N2C[C@H](O)C[C@H]2C(=O)NCc2ccc(-c3scnc3C)cc2)C(C)(C)C)ccc1NC(=O)[C@H]1N[C@H](CC(C)(C)C)[C@@](C#N)(c2ccc(Cl)cc2F)[C@@H]1c1cccc(Cl)c1F" : no p53 level increase

###

target_entity: androgen receptor (AR) (Homo sapiens, UniProt P10275)
Construct: detects endogenous levels of total androgen receptor protein; host or cells: VCaP
Sequence (P10275 whole entry): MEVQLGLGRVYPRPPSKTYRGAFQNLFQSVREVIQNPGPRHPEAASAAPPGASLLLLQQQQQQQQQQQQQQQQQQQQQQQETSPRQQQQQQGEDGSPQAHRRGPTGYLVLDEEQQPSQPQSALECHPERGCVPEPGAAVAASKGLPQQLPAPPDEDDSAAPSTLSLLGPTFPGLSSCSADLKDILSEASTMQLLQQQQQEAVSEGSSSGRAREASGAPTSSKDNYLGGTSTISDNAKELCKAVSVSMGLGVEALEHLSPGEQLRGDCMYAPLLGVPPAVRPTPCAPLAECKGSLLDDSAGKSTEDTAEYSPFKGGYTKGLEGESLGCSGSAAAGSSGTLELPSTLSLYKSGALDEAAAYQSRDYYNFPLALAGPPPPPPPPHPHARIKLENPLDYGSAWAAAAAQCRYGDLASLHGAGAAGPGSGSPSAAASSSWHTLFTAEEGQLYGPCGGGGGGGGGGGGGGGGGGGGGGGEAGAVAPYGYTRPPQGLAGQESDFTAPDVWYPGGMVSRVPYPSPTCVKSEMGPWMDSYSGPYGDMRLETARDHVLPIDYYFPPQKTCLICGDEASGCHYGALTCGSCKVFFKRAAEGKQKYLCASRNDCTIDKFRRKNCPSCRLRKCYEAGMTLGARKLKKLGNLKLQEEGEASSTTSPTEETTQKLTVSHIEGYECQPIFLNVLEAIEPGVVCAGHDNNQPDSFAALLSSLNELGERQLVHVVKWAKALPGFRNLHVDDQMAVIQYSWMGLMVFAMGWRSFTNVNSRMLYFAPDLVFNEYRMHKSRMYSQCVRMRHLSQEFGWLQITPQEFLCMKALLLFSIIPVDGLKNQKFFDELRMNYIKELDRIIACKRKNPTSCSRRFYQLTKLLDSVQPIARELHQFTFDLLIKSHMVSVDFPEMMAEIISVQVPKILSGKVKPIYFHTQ
protocol_details: AR ELISA assay (degradation)
Type: cell-based
condition_notes: VCaP cells, 16 h
assay_readout: AR degradation (%) at 1 µM

Form: compound = CC(C)(C)C[C@H]1N[C@H](C(=O)NCCOCCOCCOCCOCCOc2ccc(C(=O)N[C@H]3C(C)(C)[C@H](Oc4ccc(C#N)c(Cl)c4)C3(C)C)cc2)[C@@H](c2cccc(Cl)c2F)[C@]1(C#N)c1ccc(Cl)cc1F [Compound A1735] ; AR degradation (%) at 1 µM = 0 to 25%

Next:
Form field AR degradation (%) at 1 µM, entry CC(C)(C)C[C@@H]1NC(C(=O)NCCOCCOCCOCCOCCOCCOc2ccc(C(=O)N[C@H]3C(C)(C)[C@H](Oc4ccc(C#N)c(Cl)c4)C3(C)C)cc2)[C@H](c2cccc(Cl)c2F)[C@@]1(C#N)c1ccc(Cl)cc1F (stereo partly shown) [Compound A1688] : 0 to 25%

AR degradation (%) at 1 µM reported for this compound CCOc1cc(C(C)(C)C)ccc1C1=NC(C)(c2ccc(Cl)cc2)C(C)(c2ccc(Cl)cc2)N1C(=O)N1CCN(CCOCCOCCOCCOCCOCCOc2ccc(N3C(=S)N(c4ccc(C#N)c(C(F)(F)F)c4)C(=O)C3(C)C)cc2)CC1 (stereo not shown) [Compound A702] : 25 to 50%

Notebook: CC(C)(C)C[C@@H]1NC(C(=O)NCCOCCOc2ccc(C(=O)N[C@H]3C(C)(C)[C@H](Oc4ccc(C#N)c(Cl)c4)C3(C)C)cc2)[C@H](c2cccc(Cl)c2F)[C@@]1(C#N)c1ccc(Cl)cc1F (stereo partly shown) [Compound A1571] , AR degradation (%) at 1 µM read as 0 to 25%

###

target_entity: MDM2 (Homo sapiens, UniProt Q00987)
Construct: Western blot of HCT116 cells treated with chimeric molecules; endogenous in cells; host or cells: HCT116
Sequence (Q00987 whole entry): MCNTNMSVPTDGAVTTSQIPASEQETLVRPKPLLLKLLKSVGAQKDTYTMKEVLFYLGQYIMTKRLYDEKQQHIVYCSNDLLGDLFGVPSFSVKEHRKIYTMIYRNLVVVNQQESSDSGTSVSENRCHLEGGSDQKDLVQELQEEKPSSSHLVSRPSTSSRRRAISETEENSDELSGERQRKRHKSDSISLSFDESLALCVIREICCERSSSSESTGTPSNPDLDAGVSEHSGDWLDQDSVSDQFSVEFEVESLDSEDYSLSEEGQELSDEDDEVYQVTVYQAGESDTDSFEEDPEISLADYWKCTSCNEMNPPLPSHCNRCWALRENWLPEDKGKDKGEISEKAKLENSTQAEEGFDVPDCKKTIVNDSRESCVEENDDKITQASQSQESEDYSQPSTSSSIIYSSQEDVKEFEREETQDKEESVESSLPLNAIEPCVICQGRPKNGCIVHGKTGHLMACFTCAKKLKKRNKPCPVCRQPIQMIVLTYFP
protocol_details: Western blot of HCT116 cells, MDM2 level
Assay type: cell-based
condition_notes: Western blot (FIG. 2, FIG. 3)
assay_readout: MDM2 up-regulation

Record "COc1cc(C(=O)NCCOCCNC(=O)C[C@@H]2N=C(c3ccc(Cl)cc3)c3c(sc(C)c3C)-n3c(C)nnc32)ccc1NC(=O)[C@H]1N[C@H](CC(C)(C)C)[C@@](C#N)(c2ccc(Cl)cc2F)[C@@H]1c1cccc(Cl)c1F" / MDM2 (Homo sapiens, UniProt Q00987), MDM2 up-regulation recorded as no MDM2 up-regulation

Measured MDM2 up-regulation for this entry "COc1cc(C(=O)NCCOCCOCCOCCOCCNC(=O)C[C@@H]2N=C(c3ccc(Cl)cc3)c3c(sc(C)c3C)-n3c(C)nnc32)ccc1NC(=O)[C@@H]1N[C@@H](CC(C)(C)C)[C@](C#N)(c2ccc(Cl)cc2F)[C@H]1c1cccc(Cl)c1F" on MDM2 (Homo sapiens, UniProt Q00987): up-regulation of MDM2

Measured MDM2 up-regulation (MDM2 (Homo sapiens, UniProt Q00987)), entry "COc1cc(C(=O)NCCOCCOCC(=O)N[C@H](C(=O)N2C[C@H](O)C[C@H]2C(=O)NCc2ccc(-c3scnc3C)cc2)C(C)(C)C)ccc1NC(=O)[C@H]1N[C@H](CC(C)(C)C)[C@@](C#N)(c2ccc(Cl)cc2F)[C@@H]1c1cccc(Cl)c1F" : no MDM2 up-regulation

Here "COc1cc(C(=O)NCCOCCOCCNC(=O)C[C@@H]2N=C(c3ccc(Cl)cc3)c3c(sc(C)c3C)-n3c(C)nnc32)ccc1NC(=O)[C@@H]1N[C@@H](CC(C)(C)C)[C@](C#N)(c2ccc(Cl)cc2F)[C@H]1c1cccc(Cl)c1F" was tested on MDM2 (Homo sapiens, UniProt Q00987), and its MDM2 up-regulation came to up-regulation of MDM2
